Source: patent US10981926B2

system-tested: wild-type Androgen Receptor (AR-wt) (Homo sapiens (Human), UniProt P10275)
Sequence (P10275 whole entry): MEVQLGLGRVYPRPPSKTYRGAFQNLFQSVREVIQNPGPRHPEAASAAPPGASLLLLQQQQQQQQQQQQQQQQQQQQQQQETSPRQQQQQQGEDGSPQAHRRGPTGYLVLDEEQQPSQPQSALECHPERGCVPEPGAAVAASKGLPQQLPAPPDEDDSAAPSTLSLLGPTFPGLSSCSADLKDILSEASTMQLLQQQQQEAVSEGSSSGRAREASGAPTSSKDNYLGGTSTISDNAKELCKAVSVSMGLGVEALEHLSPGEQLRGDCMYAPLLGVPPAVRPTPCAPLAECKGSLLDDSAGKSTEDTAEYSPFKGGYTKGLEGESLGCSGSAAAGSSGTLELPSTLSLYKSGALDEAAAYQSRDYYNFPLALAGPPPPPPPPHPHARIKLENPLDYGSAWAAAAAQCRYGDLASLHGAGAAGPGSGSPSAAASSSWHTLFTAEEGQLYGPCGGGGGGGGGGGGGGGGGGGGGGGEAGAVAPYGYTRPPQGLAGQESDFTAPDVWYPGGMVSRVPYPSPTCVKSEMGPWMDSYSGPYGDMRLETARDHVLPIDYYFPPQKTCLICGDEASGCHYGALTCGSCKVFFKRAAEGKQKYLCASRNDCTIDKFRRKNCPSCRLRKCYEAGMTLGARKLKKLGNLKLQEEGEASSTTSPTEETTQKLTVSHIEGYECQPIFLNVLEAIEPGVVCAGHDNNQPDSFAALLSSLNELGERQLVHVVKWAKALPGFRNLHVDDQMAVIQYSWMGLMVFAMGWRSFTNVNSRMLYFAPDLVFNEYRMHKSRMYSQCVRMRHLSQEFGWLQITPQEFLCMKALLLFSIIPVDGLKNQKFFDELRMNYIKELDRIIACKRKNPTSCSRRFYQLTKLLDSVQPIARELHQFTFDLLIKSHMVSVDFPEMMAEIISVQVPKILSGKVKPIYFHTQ
measurement-protocol: LNCaP-AR-wt ANT reporter assay (antagonist mode)
Format: cell-based
particulars: antagonist mode; maximum % inhibition of R1881 control response over tested concentration range; read-out: LNCaP-AR-wt ANT MAX % Inh
quantity: Emax
// return the numeric value with its unit appended

N#Cc1ncc(N2C(=O)C3(CCC3)N(c3ccc(OC4CCNC(=O)C4)cc3)C2=S)cc1C(F)(F)F (racemic)
102%

// field: Emax; key: `Cn1c(CCO)nc2cc(N3C(=S)N(c4cnc(C#N)c(C(F)(F)F)c4)C(=O)C34CCC4)ccc21` ; value = 94.7%

// field: Emax; key: `N#Cc1ncc(N2C(=O)C3(CCC3)N(c3ccc(C(=O)NC[C@@H]4CCCNC4)cc3)C2=S)cc1C(F)(F)F` ; value = 99.8%

// field: Emax; key: `CN1CCC[C@@H](CNC(=O)c2ccc(N3C(=S)N(c4cnc(C#N)c(C(F)(F)F)c4)C(=O)C34CCC4)cc2)C1` ; value = 102%

====

system-tested: F876L mutant Androgen Receptor (AR-F876L) (Homo sapiens (Human), UniProt P10275, F877L)
Sequence (P10275 whole entry F877L): as the sequence (P10275 whole entry) above, with F877L counted along it
measurement-protocol: LNCaP-AR-F876L AG reporter assay (agonist mode)
Type: cell-based
particulars: maximum % stimulation (agonist response) over the tested concentration range; read-out: LNCaP-AR-F876L AG MAX % Stim
Parameter: Emax. Scope: all listed entries.
// return the numeric value with its unit appended

Solved cases (6 shown):
N#Cc1ncc(N2C(=O)C3(CCC3)N(c3ccc(OCCN4CC5(COC5)C4)cc3)C2=S)cc1C(F)(F)F
0.8%
COCCn1ncc2cc(N3C(=S)N(c4cnc(C#N)c(OC)c4)C(=O)C34CCC4)ccc21
0.1%
CN1CC[C@H](Oc2ccc(N3C(=S)N(c4cnc(C#N)c(C(F)(F)F)c4)C(=O)C34CCC4)cc2)[C@H](F)C1 (racemic)
0.3%
CNC1CCC(Oc2ccc(N3C(=S)N(c4cnc(C#N)c(C(F)(F)F)c4)C(=O)C34CCC4)cc2)CC1 (stereo not shown)
0.1%
CN1[C@@H]2CC[C@H]1C[C@H](Oc1ccc(N3C(=S)N(c4cnc(C#N)c(C(F)(F)F)c4)C(=O)C34CCC4)cc1)C2
0.8%
CC(C)(C)OC(=O)N1CCC(n2cc3cc(N4C(=S)N(c5cnc(C#N)c(C(F)(F)F)c5)C(=O)C45CCC5)ccc3n2)CC1
0.5%

// field: Emax; key: `N#Cc1ncc(N2C(=O)C3(CCC3)N(c3ccc(O)nc3)C2=S)cc1C(F)(F)F` ; value = 0%

====

Tested on: rGABA-gated Cl− channel
measurement-protocol: GABA-Gated Cl Channel Antagonist Radioligand Binding Assay
Set-up: species or system rat
particulars: 10 μM single point, [35S]-TBPS, cerebral cortex membrane homogenates
Parameter: rGABA-gated Cl− channel % inh @10 μM. Scope: all listed entries.
// return the numeric value with its unit appended

// field: rGABA-gated Cl− channel % inh @10 μM; key: N#Cc1ncc(N2C(=O)C3(CCC3)N(c3ccc4nn(CCO)cc4c3)C2=S)cc1C(F)(F)F [Cpd 161] ; value = 77.9%

// field: rGABA-gated Cl− channel % inh @10 μM; key: N#Cc1ncc(N2C(=O)C3(CCC3)N(c3ccc(OC4CCN(CCF)CC4)nc3)C2=S)cc1C(F)(F)F [Cpd 67] ; value = 53.4%

// field: rGABA-gated Cl− channel % inh @10 μM; key: CN1CCC(CNC(=O)c2ccc(N3C(=S)N(c4cnc(C#N)c(C(F)(F)F)c4)C(=O)C34CCC4)cc2)CC1 [Cpd 72] ; value = 20.0%

// field: rGABA-gated Cl− channel % inh @10 μM; key: COCCN1CCC(Oc2ccc(N3C(=S)N(c4cnc(C#N)c(Cl)c4)C(=O)C34CCC4)cn2)CC1 [Cpd 70] ; value = 9.2%
